MIC listing for selected compounds.
Tested on: Streptococcus pneumoniae
protocol.details: In vitro antibacterial activity against the gram-positive bacteria, penicillin resistant Streptococcus pneumoniae (4630)
Type: functional
measure.name: MIC (µg/mL)

[[record]]
compound = "CC1(C)S[C@@H]2[C@H](NC(=O)Cc3ccccc3)C(=O)N2[C@H]1C(=O)O"
measure_name = "MIC"
unit_info = "µg/mL"
readout_value = 4

[[record]]
compound = "CC(=O)OCC1=C(C(=O)O)N2C(=O)[C@@H](NC(=O)CN(OCc3ccccc3Cl)C(=O)Nc3ccccc3)C2SC1 (stereo not given in full)"
measure_name = "MIC"
unit_info = "µg/mL"
readout_value = 8

[[record]]
compound = "CC(=O)OCC1=C(C(=O)O)N2C(=O)[C@@H](NC(=O)CN(OCc3ccc(Cl)cc3)C(=O)c3ccccc3)C2SC1 (stereo not given in full)"
measure_name = "MIC"
unit_info = "µg/mL"
readout_value = 8

[[record]]
compound = "CC1(C)S[C@@H]2[C@H](NC(=O)[C@H](N)c3ccc(O)cc3)C(=O)N2[C@H]1C(=O)O.O=C(O)[C@H]1/C(=C/CO)O[C@@H]2CC(=O)N21"
measure_name = "MIC"
unit_info = "µg/mL"
readout_value = 2

[[record]]
compound = "CC(=O)OCC1=C(C(=O)O)N2C(=O)[C@@H](NC(=O)CN(OCc3ccccc3)C(=O)c3ccccc3)C2SC1 (stereo not given in full)"
measure_name = "MIC"
unit_info = "µg/mL"
readout_value = 8

[[record]]
compound = "CC(=O)OCC1=C(C(=O)O)N2C(=O)[C@@H](NC(=O)CN(OCc3ccccc3Cl)C(=O)c3ccccc3)C2SC1 (stereo not given in full)"
measure_name = "MIC"
unit_info = "µg/mL"
readout_value = 16

[[record]]
compound = "N[C@@H](C(=O)N[C@@H]1C(=O)N2C(C(=O)O)=C(Cl)CS[C@H]12)c1ccccc1 [CEFACLOR ANHYDROUS]"
measure_name = "MIC"
unit_info = "µg/mL"
readout_value = 16

[[record]]
compound = "CC(=O)OCC1=C(C(=O)O)N2C(=O)[C@@H](NC(=O)CN(OCc3ccccc3)C(=O)Nc3ccccc3)C2SC1 (stereo not given in full)"
measure_name = "MIC"
unit_info = "µg/mL"
readout_value = 8

[[record]]
compound = "CC(=O)OCC1=C(C(=O)O)N2C(=O)[C@@H](NC(=O)CN(OCc3cccc(Cl)c3)C(=O)NCc3ccccc3)C2SC1 (stereo not given in full)"
measure_name = "MIC"
unit_info = "µg/mL"
readout_value = 8

[[record]]
compound = "CO/N=C(\\C(=O)N[C@@H]1C(=O)N2C(C(=O)O)=C(CSc3nc(=O)c(O)nn3C)CS[C@H]12)c1csc(N)n1"
measure_name = "MIC"
unit_info = "µg/mL"
readout_value = 2

[[record]]
compound = "CC(=O)OCC1=C(C(=O)O)N2C(=O)[C@@H](NC(=O)CN(OCc3cccc(Cl)c3)C(=O)c3ccccc3)C2SC1 (stereo not given in full)"
measure_name = "MIC"
unit_info = "µg/mL"
readout_value = 8

[[record]]
compound = "CO/N=C(\\C(=O)N[C@@H]1C(=O)N2C(C(=O)[O-])=C(C[n+]3cccc4c3CCC4)CS[C@H]12)c1csc(N)n1"
measure_name = "MIC"
unit_info = "µg/mL"
readout_value = 1

[[record]]
compound = "CC(=O)OCC1=C(C(=O)O)N2C(=O)[C@@H](NC(=O)CN(OCc3cccc(Cl)c3)C(=O)Nc3ccccc3)C2SC1 (stereo not given in full)"
measure_name = "MIC"
unit_info = "µg/mL"
readout_value = 4

[[record]]
compound = "CC(=O)OCC1=C(C(=O)O)N2C(=O)[C@@H](NC(=O)CN(OCc3ccccc3)C(=O)NCc3ccccc3)C2SC1 (stereo not given in full)"
measure_name = "MIC"
unit_info = "µg/mL"
readout_value = 16

[[record]]
compound = "CC(=O)OCC1=C(C(=O)O)N2C(=O)[C@@H](NC(=O)CN(OCc3ccc(Cl)cc3)C(=O)NCc3ccccc3)C2SC1 (stereo not given in full)"
measure_name = "MIC"
unit_info = "µg/mL"
readout_value = 8

